# targetSystem: α6β2* nicotinic receptor (Rattus norvegicus, UniProt P12390+P43143)
# Sequence (P43143 31-493): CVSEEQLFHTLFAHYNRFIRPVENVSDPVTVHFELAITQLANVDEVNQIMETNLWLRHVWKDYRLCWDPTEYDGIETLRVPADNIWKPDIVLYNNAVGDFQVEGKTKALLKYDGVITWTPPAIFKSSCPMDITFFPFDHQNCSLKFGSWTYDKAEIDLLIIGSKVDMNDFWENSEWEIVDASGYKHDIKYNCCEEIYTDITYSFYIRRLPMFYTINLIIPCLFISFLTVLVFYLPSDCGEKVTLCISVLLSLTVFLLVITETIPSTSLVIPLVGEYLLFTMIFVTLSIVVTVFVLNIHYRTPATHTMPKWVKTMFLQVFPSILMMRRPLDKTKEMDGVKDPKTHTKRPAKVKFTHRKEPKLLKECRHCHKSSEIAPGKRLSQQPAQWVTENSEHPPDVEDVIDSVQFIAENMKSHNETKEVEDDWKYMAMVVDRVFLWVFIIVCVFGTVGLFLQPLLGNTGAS
# Sequence (P12390 25-500): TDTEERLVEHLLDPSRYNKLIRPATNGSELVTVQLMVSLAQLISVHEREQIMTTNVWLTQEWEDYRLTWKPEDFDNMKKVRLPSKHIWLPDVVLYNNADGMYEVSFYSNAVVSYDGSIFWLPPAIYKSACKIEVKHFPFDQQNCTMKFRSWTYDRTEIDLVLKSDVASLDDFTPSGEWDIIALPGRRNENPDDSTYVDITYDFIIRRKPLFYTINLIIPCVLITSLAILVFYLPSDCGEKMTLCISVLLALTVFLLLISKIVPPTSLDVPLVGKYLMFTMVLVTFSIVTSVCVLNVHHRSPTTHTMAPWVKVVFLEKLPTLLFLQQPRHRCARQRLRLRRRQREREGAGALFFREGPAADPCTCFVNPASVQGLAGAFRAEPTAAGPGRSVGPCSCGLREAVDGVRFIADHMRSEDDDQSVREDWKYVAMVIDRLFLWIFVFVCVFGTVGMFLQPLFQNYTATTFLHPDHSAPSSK
# measurementNotes: Nicotine-evoked [3H]DA overflow from superfused striatal slices
# Assay type: cell-based
# details: Table 1; inhibition of 10 μM S(−)-nicotine; NI: no inhibition; read-out: Inhibition of Nicotine-Evoked [3H]DA Overflow (IC50) α6β2*
readoutName: pIC50
Units for pIC50: none; it is -log10 of a concentration expressed in mol/L.

Recorded pIC50, per entry:
Notebook: pull reported pIC50 for α6β2* nicotinic receptor (Rattus norvegicus, UniProt P12390+P43143), entry c1ccc(CC[C@H]2CCC[C@@H](CCc3ccccc3)N2)cc1 [Compound 25, 2,6-cis-diphenethylpiperidine]
7.00

Okay, and CN1[C@H](/C=C/c2ccccc2)CCC[C@H]1/C=C/c1ccccc1 [Compound 15] ?
6.00

***
Notebook: pull reported pIC50 for α6β2* nicotinic receptor (Rattus norvegicus, UniProt P12390+P43143), entry Cc1ccc(S(=O)(=O)O[C@@H](C[C@H]2CCC[C@@H](CC(=O)c3ccccc3)N2C)c2ccccc2)cc1 [Compound 2]
6.00
